assay: qHTS for inhibitors of Vif-A3G interactions: Cherry picks; conditions: HeLa A3G-eYFP + Vif, 24 h; eYFP fluorescence increase; series mostly up to 36.9 µM; also: nearly all actives have a fitted effect of over 80% in size
The whole screen tested about 2,100 compounds, of which about 650 (31%) were called active. Another 16% or so got no clear call; they are omitted. Calls follow the shape of the dose curve; as a rule, active = well fitted inhibition curve with a large enough effect; inconclusive = small, poorly fitted or top-dose-only effect; inactive = flat fitted curve, though single readings scatter. This is one part of the list.
Outcomes: active, inactive

                                   molecule     class
0  CC(=O)Nc1ccc(S(=O)(=O)Nc2nc3ccccc3nc2Sc2nncn2C)cc1  inactive
1  Cc1ccc(-c2nc3sc(C#N)c(N)n3c(=O)c2C#N)cc1    active
2    COc1cc(C(=O)c2ccc3c(c2)OCO3)cc(OC)c1OC  inactive
3  Cc1ccc(N=C2NC(=O)CC(C(=O)Nc3ccc4c(c3)OCO4)S2)cc1 (centres undefined)  inactive

###

Assay: qHTS for inhibitors of Vif-A3G interactions: Cherry picks; also: nearly all actives have a fitted effect of over 80% in size
Settings: HeLa A3G-eYFP + Vif, 24 h; eYFP fluorescence increase; series mostly up to 36.9 µM
Source text: The recent discovery and characterization of host restriction factors, which provide a potent defense to invading retroviruses, has provided new targets for antiviral drug development. […] In the presence of an inhibitor, it is expected that Vif will be unable to degrade A3G-eYFP and/or A3F-eYFP, resulting in an increase in yellow fluorescence. […]
Screen size: about 2,100 compounds; about 650 (31%) were called active. Not shown: some 16% with an inconclusive outcome. Calls come from the whole dose curve; as a rule, active = well fitted inhibition curve with a large enough effect; inconclusive = small, poorly fitted or top-dose-only effect; inactive = flat fitted curve, though single readings scatter. Some of the results follow.
Outcomes: class 1 for active, class 0 for inactive

>>> print(df.to_string())
                                item_smiles    class
0  Nc1c(C(=O)Nc2nccs2)sc2nc(-c3cccs3)cc(C(F)(F)F)c12  class 1
1  CCN(CC)c1ccc(NC(=O)c2ccc(=O)[nH]c2)cc1S(=O)(=O)Nc1ccc(OC)cc1  class 0
2  CCOC(=O)c1[nH]c(C)c(C(=O)Nc2ccc(C)cc2C)c1C  class 0
3  Nc1c(C(=O)Nc2ccc(F)cc2)sc2nc(-c3cccs3)cc(C(F)(F)F)c12  class 1
4  COc1cccc(NC(=O)c2sc3nc(C)c(C(=O)Nc4ccc(C)cc4C)c(-c4ccco4)c3c2N)c1  class 0
5       Cc1cc(C)n(S(=O)(=O)/C=C/c2ccccc2)n1  class 0
6  O=[N+]([O-])c1ccccc1C1Nc2cccc3cccc(c23)N1  class 0

###

test: qHTS for inhibitors of Vif-A3G interactions: Cherry picks; conditions: HeLa A3G-eYFP + Vif, 24 h; eYFP fluorescence increase; series mostly up to 36.9 µM; also: nearly all actives have a fitted effect of over 80% in size
Hit rate of the full screen: of about 2,100 compounds, about 650 (31%) were called active. About 16% were inconclusive and are not listed. The call rests on the fitted dose curve; in most records, active means well fitted inhibition curve with a large enough effect; inconclusive means small, poorly fitted or top-dose-only effect; inactive means flat fitted curve, though single readings scatter. This is one part of the list.
Outcomes: active, inactive

                                    compound     class
 0          CCOc1ccc(Br)cc1/C(C)=N\NC1=NCCN1  inactive
 1  CCCCCCc1cc2cc(-c3nnc(-c4ccccc4)o3)c(=O)oc2cc1O    active
 2  CN(C)S(=O)(=O)c1ccc2c(c1)/C(=C/c1cc3c([nH]1)CCCC3)C(=O)N2    active
 3  CCC(=Nc1ccccc1O)C1=C(O)CC(c2ccccc2)CC1=O (stereo not given)  inactive
 4  Cc1c(C(=O)N2CCOCC2)[nH]c2c1C(=O)CC(c1ccccc1Cl)C2 (stereo not given)  inactive
 5    COc1ccc2c(c1)N(C)/C(=C/c1cccc[n+]1C)S2    active
 6  CCCSc1nnc(N2C(=O)C(O)=C(C(=O)c3ccco3)C2c2ccccc2F)s1 (stereo not given)  inactive
 7  CCOc1ccccc1C(=O)Nc1c(C(=O)Nc2ccc(F)cc2)oc2ccccc12  inactive
 8  CCN(CC)CCCNc1ccc2ncn3c4ccc(O)cc4c(=O)c1c23    active
 9       COC(=O)c1sccc1NC(=S)Nc1cc(C)cc(C)c1  inactive
10  COc1ccc2c(c1)/C(=C/c1cc(OC)c(OC)c(OC)c1)C(=O)N2  inactive
11  CCCOc1ccccc1C1CC(=O)NC2=C1C(=O)CCC2 (stereo not given)  inactive
12  COc1ccc(-c2cc(-c3cccs3)nc3sc(C#N)c(N)c23)cc1    active
13  COc1ccc2c(c1)/C(=C\c1cccc(/C=C3/C(=O)Nc4ccc(OC)cc43)n1)C(=O)N2  inactive
14            Cc1nc(-c2ccc(Cl)cc2)sc1C(=O)NN  inactive
15  Cc1ccc(S(=O)(=O)Nc2cc(Cl)c(O)c3ncccc23)cc1  inactive
16            COc1ccccc1-c1cc(C(=O)NN)[nH]n1  inactive
17  CCOc1ccccc1C1CC(=O)NC2=C1C(=O)CCC2 (stereo not given)  inactive
18  CCOc1ccc2nc(N3C(=O)/C(=C/c4ccc(Cl)cc4)NC3=S)sc2c1    active
19  COc1c(-c2ccc(O)c(O)c2)oc2cc(O)cc(O)c2c1=O  inactive
20            CNc1cncc(-c2cc(C)c(O)c(C)c2)n1  inactive
21        O=C(Cc1ccccc1)NCc1ccc(-n2cccc2)cc1  inactive
22  CCOC(=O)c1cc2n(c1/N=C/N(C)C)-c1ccccc1C2=O    active
23  O=[N+]([O-])c1ccc(C2=Nc3cc(Cl)ccc3OC2)cc1    active
24       CSc1ccccc1NC(=O)COC(=O)/C=C/c1ccco1  inactive

###

test: qHTS for inhibitors of Vif-A3G interactions: Cherry picks; details: HeLa A3G-eYFP + Vif, 24 h; eYFP fluorescence increase; series mostly up to 36.9 µM; also: nearly all actives have a fitted effect of over 80% in size
Screen size: about 2,100 compounds; about 650 (31%) were called active. Another 16% or so got no clear call; they are omitted. Calls follow the shape of the dose curve; as a rule, active = well fitted inhibition curve with a large enough effect; inconclusive = small, poorly fitted or top-dose-only effect; inactive = flat fitted curve, though single readings scatter. The list shows a part of the results.
Outcomes: 1 (yes) = active, 0 (no) = inactive

                                 item_smiles    class
 0             Fc1ccc2nc3[nH]c4ccccc4c3nc2c1  1 (yes)
 1  COc1ccc(NC(=O)CSc2nc3c(oc4ccccc43)c(=O)n2Cc2ccco2)cc1Cl  1 (yes)
 2  COc1ccc(-c2nnc(NC(=O)c3ccc([N+](=O)[O-])o3)o2)c(OC)c1   0 (no)
 3  Cc1ccc(NC(=O)/C=C/c2ccc([N+](=O)[O-])s2)c(C)c1  1 (yes)
 4    CCCn1c(SCC(=O)Nc2ccccc2OC)nnc1-c1ccco1   0 (no)
 5   COC(=O)c1nnn(-c2nonc2N)c1CN1CCc2ccccc21   0 (no)
 6  O=C(Cc1ccccc1)N/N=C/c1ccc(-c2ccc([N+](=O)[O-])cc2)o1  1 (yes)
 7  COc1ccc2[nH]c(C(=O)N/N=C/c3ccc(OC)c(O)c3)cc2c1   0 (no)
 8   Cc1ccc(NC(=O)Cc2ccc(-n3cccc3)cc2)c(C)c1   0 (no)
 9  CC(=O)c1cccc(NC(=O)/C=C/c2ccc([N+](=O)[O-])s2)c1  1 (yes)
10               Cc1cccc(CSc2cccc3cccnc23)c1   0 (no)

###

test: qHTS for inhibitors of Vif-A3G interactions: Cherry picks; details: HeLa A3G-eYFP + Vif, 24 h; eYFP fluorescence increase; series mostly up to 36.9 µM; also: nearly all actives have a fitted effect of over 80% in size; also: potency is read from the fitted curve at half-maximal effect
The whole screen tested about 2,100 compounds, of which about 650 (31%) were called active. Not shown: some 16% with an inconclusive outcome. The list shows a part of the results.
readout-label: Potency

>>> print(df.to_string())
                                   molecule  readout_label          measured
0  Cc1cccc(N2CCN(C(=O)c3cccc(N4CCCC4=O)c3)C(C)C2)c1 (stereo not drawn)        Potency          inactive
1  Cc1c(N2C(=O)/C(=C/c3ccc(N(C)C)cc3)N(C)C2=S)c(=O)n(-c2ccccc2)n1C        Potency  18.4 µM (active)
2           O=[N+]([O-])c1cc(Cl)c2cccnc2c1O        Potency          inactive

###

experiment: qHTS for inhibitors of Vif-A3G interactions: Cherry picks; settings: HeLa A3G-eYFP + Vif (tagged APOBEC3G with the HIV-1 protein that degrades it), 24 h; eYFP fluorescence increase; series mostly up to 36.9 µM; also: nearly all actives have a fitted effect of over 80% in size
The campaign covered roughly 2,100 compounds. About 650 (31%) were called active. Not shown: some 16% with an inconclusive outcome. The call rests on the fitted dose curve; in most records, active means well fitted inhibition curve with a large enough effect; inconclusive means small, poorly fitted or top-dose-only effect; inactive means flat fitted curve, though single readings scatter. The list shows a part of the results.
Outcomes: active, inactive

                                    compound     class
 0     CSc1nc2ccccc2cc1/C=C(\C#N)c1cccc(C)c1  inactive
 1  CCCN1CCC(=NNc2ccc(S(=O)(=O)N3CCOCC3)cc2[N+](=O)[O-])CC1  inactive
 2        N#C/C(=C\c1cccnc1)c1nc2ccccc2[nH]1  inactive
 3    N#C/C(=C/c1ccc(N2CCCCC2)o1)c1cccc(F)c1    active
 4  Cc1cccc(Nc2nnc(SC/C(O)=C(\C#N)c3nc4ccccc4[nH]3)s2)c1  inactive
 5             CSc1nc(Sc2ccccc2Cl)c2ccccc2n1  inactive
 6  COc1cccc(C2=CC(c3cccs3)n3nnnc3N2)c1 (centres undefined)  inactive
 7  CC(=O)c1cccc(-c2ccnc3c2CC(C(=O)NCC2CCOCC2)O3)c1 (centres undefined)  inactive
 8  O=C(OCCC12CC3CC(CC(C3)C1)C2)c1ccc(NCc2cc(O)ccc2O)cc1  inactive
 9  O=[N+]([O-])c1ccc(N=Nc2ccc(O)c3ccccc23)cc1  inactive
10  COc1cc(C2Nc3ccc4ncccc4c3C3=C2C(=O)CCC3)ccc1O (centres undefined)  inactive
11  COc1cc(Br)c(/C=C(\C#N)c2nc3ccccc3[nH]2)cc1OC    active
12  C/C(=N\NC(=O)C(C)n1nc(C)c([N+](=O)[O-])c1C)c1ccccc1O (centres undefined)  inactive
13  COc1ccc(-c2cnnc(N/N=C/c3ccc(O)c(OC)c3)n2)cc1  inactive
14  C=CCOC(=O)C1=C(C)Nc2nnnn2C1c1cccs1 (centres undefined)  inactive
15  COC1=C/C(=C/c2c(N)n3nc(-c4ccc(C)cc4)sc3nc2=O)C=CC1=O    active
16  COc1ccccc1NS(=O)(=O)c1cc([N+](=O)[O-])ccc1N/N=C/c1c(C)[nH]c2ccccc12    active
17  O=C(Nc1ccc2c(c1)OCCO2)C(=O)c1c[nH]c2ccccc12  inactive
18    CN(C)c1ccc(/C=C/c2ccnc3ccc(Br)cc23)cc1    active

The reported numbers originate from PubChem BioAssay AID651812.
